MEASURED_ON: 5-hydroxytryptamine receptor 6 (Homo sapiens, UniProt P50406)
Sequence (P50406 whole entry): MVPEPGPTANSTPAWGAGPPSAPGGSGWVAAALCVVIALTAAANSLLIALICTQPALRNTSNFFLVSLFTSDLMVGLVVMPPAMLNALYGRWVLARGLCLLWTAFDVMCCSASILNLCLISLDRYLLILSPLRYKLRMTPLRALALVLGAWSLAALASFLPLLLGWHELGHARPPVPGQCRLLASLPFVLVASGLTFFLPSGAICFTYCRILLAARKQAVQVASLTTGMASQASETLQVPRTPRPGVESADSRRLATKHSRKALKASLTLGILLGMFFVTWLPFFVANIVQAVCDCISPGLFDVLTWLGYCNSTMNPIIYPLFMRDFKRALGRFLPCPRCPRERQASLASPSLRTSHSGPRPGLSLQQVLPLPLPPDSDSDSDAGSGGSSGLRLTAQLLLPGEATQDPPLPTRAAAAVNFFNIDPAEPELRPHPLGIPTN
Format: cell membranes, HeLa, Membrane
STATED_CONDITIONS: hela
PARAMETER_MEASURED: IC50

                                   compound  observed_value
0  Cc1cn([C@H]2C=C[C@@H](CO)O2)c(=O)[nH]c1=O      Not Active
1           O=C(O)CNCP(=O)(O)O [GLYPHOSATE]      Not Active
2  C#C[C@]1(O)CC[C@H]2[C@@H]3CCC4=CC(=O)CC[C@@H]4[C@H]3CC[C@@]21C      Not Active

* * *

MEASURED_ON: Adenosine receptor A2a (Homo sapiens, UniProt P29274)
Sequence (P29274 whole entry): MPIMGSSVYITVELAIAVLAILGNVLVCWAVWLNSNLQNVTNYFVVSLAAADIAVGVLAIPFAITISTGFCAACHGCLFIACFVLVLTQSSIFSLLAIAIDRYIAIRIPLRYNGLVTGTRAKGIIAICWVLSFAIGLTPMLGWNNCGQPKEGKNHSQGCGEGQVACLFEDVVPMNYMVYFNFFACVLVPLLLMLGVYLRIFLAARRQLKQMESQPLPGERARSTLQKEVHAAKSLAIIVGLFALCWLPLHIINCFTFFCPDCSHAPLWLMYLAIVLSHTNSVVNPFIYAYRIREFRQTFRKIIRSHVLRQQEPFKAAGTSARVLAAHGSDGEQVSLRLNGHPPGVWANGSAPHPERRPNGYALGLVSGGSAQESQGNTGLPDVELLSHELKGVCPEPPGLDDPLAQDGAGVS
ASSAY_PROTOCOL: DRUGMATRIX: Adenosine A2A radioligand binding (ligand: […])
Assay type: cell membranes, HEK293, Membrane
STATED_CONDITIONS: hek293; Not Active = under 50% inhibition at 10 µM
PARAMETER_MEASURED: IC50

Field: example entries. Status: answers known.
COMPOUND	OBSERVED_VALUE
CC(N)C12CC3CC(CC(C3)C1)C2 (configuration not stated) [RIMANTADINE]	Not Active
O=C1c2ccccc2C(=O)C1c1ccccc1 [PHENINDIONE]	Not Active
CC1=C(/C=C/C(C)=C/C=C/C(C)=C/C(=O)O)C(C)(C)CCC1 [TRETINOIN]	Not Active
O=C(O)COC(=O)Cc1ccccc1Nc1c(Cl)cccc1Cl [ACECLOFENAC]	Not Active
CC#C[C@]1(O)CC[C@H]2[C@@H]3CCC4=CC(=O)CCC4=C3[C@@H](c3ccc(N(C)C)cc3)C[C@@]21C [MIFEPRISTONE]	Not Active

input: Dear colleague, please send me the reported IC50 for O=C1CN(/N=C/c2ccc([N+](=O)[O-])o2)C(=O)N1 [NITROFURANTOIN] when you can.
output: Not Active

input: Return value of IC50 for input OC[C@H]1OC2C3[C@@H](CO)OC(O[C@H]4[C@H](O)[C@@H](O)[C@@H](O[C@H]5[C@H](O)[C@@H](O)[C@@H](O[C@H]6[C@H](O)[C@@H](O)[C@@H](O[C@H]7[C@H](O)[C@@H](O)[C@@H](O[C@H]8[C@H](O)[C@@H](O)[C@@H](O[C@H]9[C@H](O)[C@@H](O)C(OC1[C@H](O)[C@H]2O)O[C@@H]9CO)O[C@@H]8CO)O[C@@H]7CO)O[C@@H]6CO)O[C@@H]5CO)O[C@@H]4CO)[C@H](O)[C@H]3O , no commentary.
output: Not Active

input: Identify the reported IC50 for the following entry. Nc1nc(N)c2nc(CNc3ccc(C(=O)N[C@@H](CCC(=O)O)C(=O)O)cc3)cnc2n1 [AMINOPTERIN]
output: Not Active

input: Quick one: give measured IC50 for C[N+](C)(C)CCOP(=O)([O-])OC[C@H](O)CO
output: Not Active

input: // Input: CNCCCC12CCC(c3ccccc31)c1ccccc12 [MAPROTILINE] . Output its IC50 only.
output: Not Active

* * *

MEASURED_ON: 3-hydroxy-3-methylglutaryl-coenzyme A reductase (Homo sapiens, UniProt P04035)
Sequence (P04035 whole entry): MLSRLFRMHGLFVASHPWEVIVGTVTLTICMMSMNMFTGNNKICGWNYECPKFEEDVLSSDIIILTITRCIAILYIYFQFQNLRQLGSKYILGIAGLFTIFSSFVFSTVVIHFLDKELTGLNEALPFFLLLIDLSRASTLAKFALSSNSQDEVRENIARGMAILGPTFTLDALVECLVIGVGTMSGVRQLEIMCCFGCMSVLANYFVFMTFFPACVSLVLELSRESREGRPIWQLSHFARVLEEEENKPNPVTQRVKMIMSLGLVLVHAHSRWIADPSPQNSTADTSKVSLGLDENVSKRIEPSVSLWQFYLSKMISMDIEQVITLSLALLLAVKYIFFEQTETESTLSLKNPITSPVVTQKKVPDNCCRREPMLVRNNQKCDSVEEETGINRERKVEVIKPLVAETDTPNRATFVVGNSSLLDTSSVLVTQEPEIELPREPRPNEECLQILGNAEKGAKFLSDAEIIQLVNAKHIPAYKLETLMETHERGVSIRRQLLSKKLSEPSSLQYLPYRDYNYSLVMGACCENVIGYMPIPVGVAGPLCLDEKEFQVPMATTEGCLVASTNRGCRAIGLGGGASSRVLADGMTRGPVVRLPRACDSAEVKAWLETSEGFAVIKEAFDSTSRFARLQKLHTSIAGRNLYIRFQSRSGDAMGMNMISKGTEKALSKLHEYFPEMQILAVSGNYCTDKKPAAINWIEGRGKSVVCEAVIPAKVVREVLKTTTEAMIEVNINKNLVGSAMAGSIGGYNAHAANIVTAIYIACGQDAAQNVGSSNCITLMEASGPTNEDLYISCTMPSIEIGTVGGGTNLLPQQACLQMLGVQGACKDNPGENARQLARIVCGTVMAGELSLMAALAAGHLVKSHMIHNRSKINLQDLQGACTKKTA
Parameters: species or system Escherichia coli
PARAMETER_MEASURED: IC50

COMPOUND	OBSERVED_VALUE
Cc1ccnc(NS(=O)(=O)c2ccc(N)cc2)n1 [SULFAMERAZINE]	Not Active
CC(Cl)(Cl)Cl [TRICHLOROETHANE]	Not Active
O=c1[nH]cnc2c1ncn2[C@H]1CC[C@@H](CO)O1 [DIDANOSINE]	Not Active
O=C(O)COC(=O)Cc1ccccc1Nc1c(Cl)cccc1Cl [ACECLOFENAC]	Not Active
O=C(Nc1ccc(Cl)c(Cl)c1)c1cc(Cl)cc(Cl)c1O [3,3',4',5-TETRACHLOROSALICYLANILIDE]	Not Active

input: For the compound CCN(CC)CCNC(=O)c1cc(Cl)c(N)cc1OC [METOCLOPRAMIDE] , give its reported IC50.
output: Not Active

input: Input CC(C)Cc1ccc([C@H](C)C(=O)O)cc1 [DEXIBUPROFEN] , output reported IC50.
output: Not Active

input: Identify measured IC50 corresponding to CN(Cc1cc(Br)cc(Br)c1N)C1CCCCC1 [BROMHEXINE]
output: Not Active

input: Respond only with IC50 recorded for CC(=O)[C@]1(O)Cc2c(O)c3c(c(O)c2[C@@H](O[C@H]2C[C@H](N)[C@H](O)[C@H](C)O2)C1)C(=O)c1ccccc1C3=O [IDARUBICIN]
output: Not Active

input: Please give the documented IC50 of C[C@]12CCC(=O)C[C@@H]1CC[C@@H]1[C@@H]2CC[C@]2(C)[C@@H](O)CC[C@@H]12 [STANOLONE]
output: Not Active

input: Identify IC50 associated with the compound CC1(C)[C@H](C(=O)O)N2C(=O)C[C@H]2S1(=O)=O [SULBACTAM]
output: Not Active

input: Provide one value: measured IC50 of Cc1ccc(Cl)c(Nc2ccccc2C(=O)O)c1Cl [MECLOFENAMIC ACID]
output: Not Active

# credit: ChEMBL document CHEMBL1909046
